System: Salmonella enterica subsp. enterica
ASSAY INFO: Antimicrobial activity against Salmonella typhimurium […] assessed as bacterial growth inhibition incubated for 18 hrs by microdilution method
Type: functional
READOUT TYPE: MIC

Return reported MIC for target or system Salmonella enterica subsp. enterica, item O=C(O)c1cn(C2CC2)c2cc(N3CCNCC3)c(F)cc2c1=O [CIPROFLOXACIN] .
> 1.8 µg/mL

Return reported MIC for target or system Salmonella enterica subsp. enterica, item "Clc1ccccc1-c1nn(-c2ccccc2)cc1-c1nc2ccccn2c1Cc1ccccc1" .
< 1 µg/mL

Return reported MIC for target or system Salmonella enterica subsp. enterica, item "Oc1ccccc1-c1nn(-c2ccccc2)cc1-c1nc2ccccn2c1Cc1ccccc1" .
< 1 µg/mL

Return reported MIC for target or system Salmonella enterica subsp. enterica, item "Clc1ccc(-c2nn(-c3ccccc3)cc2-c2nc3ccccn3c2Cc2ccccc2)cc1" .
< 1 µg/mL

Return reported MIC for target or system Salmonella enterica subsp. enterica, item "COc1cccc(-c2nn(-c3ccccc3)cc2-c2nc3ccccn3c2Cc2ccccc2)c1OC" .
< 1 µg/mL

---
Return reported MIC for target or system Salmonella enterica subsp. enterica, item "Fc1ccc(-c2nn(-c3ccccc3)cc2-c2nc3ccccn3c2Cc2ccccc2)cc1" .
< 1 µg/mL
